Data origin, for the record: ChEMBL document CHEMBL3997846

- test-method-notes: Selectivity index, ratio of IC50 for rat L6 cells to IC50 for Trypanosoma cruzi Tulahuen strain C2C4 amastigote forms harboring LacZ infected in rat L6 cells
- Type: toxicity, cell-based
- experimental-setup: read-out: Ratio IC50
Note to self: use criterion met only for selectivity ratio readings below 1; a reading exactly at 1 still gets criterion not met.

# input-smiles, classification
rows = [
    ("[N-]=[N+]=NC[C@H]1O[C@@H](n2cnc3c(N)nc(F)nc32)[C@H](O)[C@@H]1O", "criterion met"),
]

[Q] is_below(selectivity ratio, 1) for CC(=O)O[C@@H]1[C@H](OC(C)=O)[C@@H](CN=[N+]=[N-])O[C@H]1n1cnc2c(N)nc(Cl)nc21 ?
[A] criterion not met

[Q] Below 1 on selectivity ratio? Entry C[C@H]1O[C@@H](n2cnc3c(N)nc(N)nc32)[C@H](O)[C@@H]1O
[A] criterion met

[Q] In plain terms, does C[C@H]1O[C@@H](n2cnc3c(N)nc(I)nc32)[C@H](O)[C@@H]1O come in under 1 for selectivity ratio?
[A] criterion met

[Q] Here's an entry: CS(=O)(=O)C[C@H]1O[C@@H](n2cnc3c(N)nc(F)nc32)[C@H](O)[C@@H]1O . Is its selectivity ratio below 1?
[A] criterion met
